// data source = ChEMBL document CHEMBL3217699

NAD-dependent protein deacetylase sirtuin-1 (Homo sapiens, UniProt Q96EB6) pIC50 data
Sequence (Q96EB6 whole entry): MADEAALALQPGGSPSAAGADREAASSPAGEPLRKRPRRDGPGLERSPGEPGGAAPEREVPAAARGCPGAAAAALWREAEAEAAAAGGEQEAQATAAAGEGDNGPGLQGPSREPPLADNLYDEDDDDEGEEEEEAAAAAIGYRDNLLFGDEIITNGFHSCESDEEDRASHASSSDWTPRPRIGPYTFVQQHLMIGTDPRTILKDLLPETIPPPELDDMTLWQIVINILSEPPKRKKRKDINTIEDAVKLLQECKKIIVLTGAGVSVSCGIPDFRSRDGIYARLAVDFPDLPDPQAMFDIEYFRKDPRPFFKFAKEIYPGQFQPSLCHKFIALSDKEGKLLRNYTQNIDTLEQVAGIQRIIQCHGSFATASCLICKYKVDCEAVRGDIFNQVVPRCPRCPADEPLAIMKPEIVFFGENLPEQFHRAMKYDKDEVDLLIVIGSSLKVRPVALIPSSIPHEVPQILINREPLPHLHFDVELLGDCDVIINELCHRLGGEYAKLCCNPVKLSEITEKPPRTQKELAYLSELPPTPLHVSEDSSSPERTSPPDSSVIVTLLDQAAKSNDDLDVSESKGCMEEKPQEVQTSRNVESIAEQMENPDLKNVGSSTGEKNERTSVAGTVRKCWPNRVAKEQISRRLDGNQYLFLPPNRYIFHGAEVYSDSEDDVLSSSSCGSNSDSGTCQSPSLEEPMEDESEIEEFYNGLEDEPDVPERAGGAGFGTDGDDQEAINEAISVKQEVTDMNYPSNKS
Where a SMILES comes first, the peptide text is derived from it.
Numbers only, as −log10 of the molar value.

Look up pIC50: CSCC[C@H](NC(=O)[C@H](CCCCNC(C)=O)NC(=O)[C@H](CCCCNC(C)=S)NC(=O)[C@H](CCCCNC(C)=O)NC(=O)[C@H](Cc1c[nH]cn1)NC(C)=O)C(N)=O (HELM PEPTIDE1{[ac].H.K.[CC(=S)NCCCC[C@H](N[*:1])C(=O)[*:2]].K.M.[am]}|PEPTIDE2{[ac]}|PEPTIDE3{[ac]}$PEPTIDE1,PEPTIDE2,3:R3-1:R2|PEPTIDE1,PEPTIDE3,5:R3-1:R2$$$V2.0)
5.70

What measured pIC50 goes with CC(=S)NCCCC[C@H](NC(=O)OCc1ccccc1)C(=O)Nc1ccccc1 ?
3.85

Entry under review: CSCC[C@H](NC(=O)[C@H](CCCCNC(C)=O)NC(=O)[C@H](CCCCNC(C)=S)NC(=O)[C@H](CCCCN)NC(=O)[C@H](Cc1c[nH]cn1)NC(C)=O)C(N)=O (HELM PEPTIDE1{[ac].H.K.[CC(=S)NCCCC[C@H](N[*:1])C(=O)[*:2]].K.M.[am]}|PEPTIDE2{[ac]}$PEPTIDE1,PEPTIDE2,5:R3-1:R2$$$V2.0) . Reported pIC50?
6.15

So what's the measured pIC50 for this one? CSCC[C@H](NC(=O)[C@H](CC(C)C)NC(=O)[C@H](CCCCNC(C)=S)NC(=O)[C@H](CCCCNC(C)=O)NC(=O)[C@H](Cc1c[nH]cn1)NC(C)=O)C(N)=O (HELM PEPTIDE1{[ac].H.K.[CC(=S)NCCCC[C@H](N[*:1])C(=O)[*:2]].L.M.[am]}|PEPTIDE2{[ac]}$PEPTIDE1,PEPTIDE2,3:R3-1:R2$$$V2.0)
5.39

For CSCC[C@H](NC(=O)[C@H](Cc1ccc(O)cc1)NC(=O)[C@H](CCCCNC(C)=S)NC(=O)[C@H](CCCCN)NC(=O)[C@H](Cc1c[nH]cn1)NC(C)=O)C(N)=O (HELM PEPTIDE1{[ac].H.K.[CC(=S)NCCCC[C@H](N[*:1])C(=O)[*:2]].Y.M.[am]}$$$$V2.0) , what is its reported pIC50?
5.46

Which value of pIC50 has been reported for CSCC[C@H](NC(=O)[C@H](CC(C)C)NC(=O)[C@H](CCCCNC(C)=S)NC(=O)[C@H](Cc1ccc(O)cc1)NC(=O)[C@H](Cc1c[nH]cn1)NC(C)=O)C(N)=O (HELM PEPTIDE1{[ac].H.Y.[CC(=S)NCCCC[C@H](N[*:1])C(=O)[*:2]].L.M.[am]}$$$$V2.0) in the records?
5.38

Others:
If you can, please state the reported pIC50 value of CSCC[C@H](NC(=O)[C@H](Cc1ccc(O)cc1)NC(=O)[C@H](CCCCNC(C)=S)NC(=O)[C@H](Cc1ccc(O)cc1)NC(=O)[C@H](Cc1c[nH]cn1)NC(C)=O)C(N)=O (HELM PEPTIDE1{[ac].H.Y.[CC(=S)NCCCC[C@H](N[*:1])C(=O)[*:2]].Y.M.[am]}$$$$V2.0) .
5.22
